Where do these numbers come from? They come from patent US12723255B2.

// T1/2, temperature where 50% of the protein was unfolded, Buffer lookup, one value per entry
Assay type: physicochemical
Settings: buffer, pH 7.5
Field: numeric (°C). Do not append units.

Data request: Requested read-out: T1/2, temperature where 50% of the protein was unfolded, Buffer. Entry: MON-HT10: engineered oxygenase protein, amino acid sequence SEQ ID NO:43 (protein) MHAALTPLTNKYRFIDVQPLCGVLGAEITGVDLREPLDDSTWNEILDAFHTYQVIYFPGQAITNEQHIAFSRRFGPVDPVPLLKSIEGYPEVQMIRREANESGRILGDDWHTDSTFLDAPPAAVVMRAIEVPEYGGDTGFLSMYSAWDTLSDTMKATIEGLNVVHSATRVFGSLYQAQNWRFSNTSVKVMDVDAGDRETVHPLVVSHPVTGRRALYCNQVYCQRIEGMTDAESKCLLQFLYEHATKFDFTCRVRWKKDQVLVWDNLCTMHLAVPDYDGKFRYLTRTTVAGDKPSR
Data returned: 44

Data request: Follow-up item: MON-HT4: engineered oxygenase protein, amino acid sequence SEQ ID NO:25 (protein) MHAALTPLTNKYRFIDVQPLTGVLGAEITGVDLREPLDDSTWNEILDAFHTYQVIYFPGQAITNEQHIAFSRRFGPVDPVPLLKSIEGYPEVQMIRREANESGRVIGDDWHTDSTFLDAPPAAVVMYAREVPPYGGDTGFLSMYTAWETLSPTMQATIEGLNVVHSATRVFGSLYQAQNRRYSNTSVKVMDVDAGDRETVHPLVVSHPVTGRRALYCNQVYCQRIEGMTDAESKSLLQFLYEHATKFDFTCRVRWKKDQVLVWDNLCTMHRAVPDYAGKFRYLTRTTVAGDKPSR
Data returned: 43

Data request: Follow-up item: MON-HT5: engineered oxygenase protein, amino acid sequence SEQ ID NO:28 (protein) MHAALTPLTNKYRFIDVQPLTGVLGAEITGVDLREPLDDSTWNEILDAFHTYQVIYFPGQAITNEQHIAFSRRFGPVDPVPLLKSIEGYPEVQMIRREANESGRVIGDDWHTDSTFLDAPPAAVVMRAIEVPEYGGDTGFLSMYSAWETLSPTMQATIEGLNVVHSATKVFGSLYQATNWRFSNTSVKVMDVDAGDRETVHPLVVTHPVTGRRALYCNQVYCQKIQGMTDAESKSLLQFLYEHATKFDFTCRVRWKKDQVLVWDNLCTMHRAVPDYAGKFRYLTRTTVAGDKPSR
Data returned: 60

Data request: Follow-up item: MON-HT7: engineered oxygenase protein, amino acid sequence SEQ ID NO:34 (protein) MHAALTPLTNKYRFIDVQPLTGVLGAEITGVDLREPLDDSTWNEILDAFHTYQVIYFPGQAITNEQHIAFSRRFGPVDPVPLLKSIEGYPEVQMIRREANESGRVIGDDWHADSTFLDAPPAAVVMRAIEVPEYGGDTGFLSMYSAWETLSPTMQATIEGLNVVHSATKVFGSLYQATNWRFSNTSVKVMDVDAGDRETVHPLVVTHPVTGRRALYCNQVYCQKIQGMTDAESKSLLQFLYEHATKFDFTCRVRWKKDQVLVWDNLCTMHRSVPDYAGKFRYLTRTTVAGDKPSR
Data returned: 67
